For each entry below, report its composite z-score value.
assay.text: small-molecule microarray binders of probe aDKK1, primary screen, biochemical, biotinylated probe, 635/667 nm fluorescence (AID 1099);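 further: score merges 667nm spot fluorescence with signal to noise across triplicate slides; reference of the scale not given here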
test.conditions: higher = more signal
Quick one: just the number, no unit, thanks!

Give its composite z-score value. Item: `CO[C@H]1COC(=O)[C@@H](Cc2ccccc2)NC(=O)[C@@H](C)COC(=O)CC=C[C@@H]1C` -0.63

Give its composite z-score value. Item: `C=C(COC)/C(=C/C[C@@H](OC(C)=O)c1cccc(OCCO)c1)c1cc(C(=O)OC)ccc1OC` 0.258

Give its composite z-score value. Item: `C=CCc1cccc([C@@H]2[C@@H](C)CC[C@H]3C(=O)N4[C@H](c5cccc(CC=C)c5)[C@@H](C)CC[C@H]4C(=O)N23)c1` -0.0603

Give its composite z-score value. Item: `CO[C@H]1COC(=O)[C@H](C)NC(=O)CC=C[C@@H](C)[C@H](NS(=O)(=O)c2ccc(C)cc2)COC(=O)CC=C[C@@H]1C` -0.667

Give its composite z-score value. Item: `CO[C@H]1O[C@H](CO)[C@@H](OC(=O)Nc2ccccc2)[C@H](OC(=O)Nc2ccc3c(c2)OCO3)[C@@H]1OC(=O)Nc1ccc2c(c1)OCO2` 0.355

Give its composite z-score value. Item: `COC(=O)C1=C(C)N(Cc2ccccc2)c2c(C(=O)OC)c(C(=O)OC)c(C(=O)OC)c(=O)n2[C@@H]1c1ccccc1` -0.056

Give its composite z-score value. Item: `Cc1ccc(N2C(=O)c3ccccc3[C@](C)(C(=O)O)[C@@H]2c2ccc(CO)cc2)nc1` -0.322

Give its composite z-score value. Item: `C=CCc1cccc([C@H]2N[C@H](C(=O)O)CC[C@@H]2C)c1` -0.6

----------
assay.text: basal S. cerevisiae growth modulation, no modifier, primary screen, OD600, strain BY4716, 24 h, basal condition (AID 1173)
test.conditions: OD600, 24 h, higher = more signal, called active from +8 up or from −8 down
observed.property: z-score
Quick one: just the number, no unit, thanks!

Give its z-score value. Item: `CO[C@@H]1COC(=O)[C@H](C)NC(=O)CC=C[C@@H](C)[C@H](NS(=O)(=O)c2ccc(C)cc2)COC(=O)CC=C[C@@H]1C` -0.364

Give its z-score value. Item: `COc1ccc(-c2ccccc2[C@@H]2N[C@H](C(=O)O)CC[C@H]2C)cc1` -0.611

Give its z-score value. Item: C[C@@H]1NC(=O)[C@H](Cc2ccccc2)NC(=O)[C@@]23C(=O)N[C@@H](Cc4ccccc4)C2[C@H](C)[C@@]2(C)O[C@H]2C3/C=C/C/C=C\CNC1=O (some centres not stated) -0.256

Give its z-score value. Item: `COC(=O)C[C@H]1O[C@]2(C(=O)N(C)c3ccccc32)[C@@H](C)[C@@H]1[Si](C)(C)c1ccc(OC)cc1` -4.08

Give its z-score value. Item: `CO[C@H]1COC(=O)[C@H](C)COC(=O)[C@H](Cc2ccccc2)NC(=O)CC=C[C@H]1C` -1.3

Give its z-score value. Item: `CO[C@H]1COC(=O)[C@H](CCSC)NC(=O)CC=C[C@@H](C)COC(=O)[C@@H](OCc2ccccc2)C=C[C@@H]1C` 0.0539

Give its z-score value. Item: `O=C1O[C@@H](c2ccccc2)[C@@H](c2ccccc2)N2[C@@H](c3ccc(O)cc3)[C@]3(C(=O)Nc4ccccc43)[C@@H](C(=O)N3CCN(c4ncccn4)CC3)[C@H]12` -0.863

----------
assay.text: basal HepG2 mitochondrial membrane potential changes, profiling panel, cell-based, JC-1 fluorescence, 24 h, 100 nL compound (AID 1167); further: test concentration not given here
test.conditions: higher = more signal
For each entry below, report its z-score value.

Give its z-score value. Item: `COC(=O)[C@@]1(Cc2ccccc2)[C@H]2c3cc(C(=O)N4CCCC4)n(CCN4CNCC4=O)c3C[C@H]2CN1C(=O)c1ccccc1` -0.314

Give its z-score value. Item: `Cc1ccc(S(=O)(=O)N[C@H]2COC(=O)CC=C[C@H](C)COC(=O)N[C@@H](C)C(=O)CC=C[C@@H]2C)cc1` 1.27

Give its z-score value. Item: `Cc1ccc(N2C(=O)c3ccccc3[C@](C)(C(=O)O)[C@@H]2c2ccc(CO)cc2)nc1` 0.521

Give its z-score value. Item: `CCCC=C(CCC)[C@@H](NS(=O)(=O)c1ccc(-c2ccccc2)cc1)c1ccc(C(=O)OC)cc1` -4.34

Give its z-score value. Item: `CCCC/C=C/[C@H]([C@@H](O)Cc1ccccc1)N(CC#Cc1ccccc1)Cc1ccccc1Br` 0.427

Give its z-score value. Item: `CCN1C(C)=C(C(=O)OC)[C@@H](c2ccccc2)N2C(=O)[C@](O)(C(=O)OC)[C@@H](c3ccccc3)C(C(C)=O)=C12` 1.35

Give its z-score value. Item: `C=C(C(=O)CC[C@H](OC(=O)c1ccccc1-c1ccccc1C(=O)O)c1ccc(CO)o1)C(C)C` -0.906

Give its z-score value. Item: `CC(=O)Nc1ccc([C@H]2[C@H](C)CC[C@H]3C(=O)N4[C@@H](CC[C@@H](C)[C@@H]4c4ccc(NC(C)=O)cc4)C(=O)N32)cc1` -1.16

Give its z-score value. Item: `CCOC(=O)C[C@H]1[C@H](OC(=O)Cc2ccc3c(c2)OCO3)[C@@H](NC(=O)CC(C)C)c2cc(OCCCO)ccc2N1C(=O)c1ccccc1` 1.78

Give its z-score value. Item: `CCCC[C@@H]1C[C@H]1[C@@H](NC(=O)c1cccs1)c1ccc(Cl)cc1` -1.16

Give its z-score value. Item: `C[C@H]1COC(=O)[C@@H]2CCCN2C(=O)[C@@H](C)COC(=O)[C@@H]2CCCN2C1=O` 0.799

Give its z-score value. Item: `CC[C@@H]1C=C(C(=O)O)[C@H](c2ccccc2)N1S(=O)(=O)c1ccc([N+](=O)[O-])cc1` 0.414

Give its z-score value. Item: `CO[C@@H]1COC(=O)[C@H](COCc2ccccc2)NC(=O)CC=C[C@@H](C)[C@H](OC)COC(=O)[C@H](COCc2ccccc2)NC(=O)CC=C[C@H]1C` 0.849

Give its z-score value. Item: `CSCC[C@@H]1NC(=O)CC=C[C@@H](C)COC(=O)[C@H](CCSC)NC(=O)CC=C[C@@H](C)COC1=O` 0.79

Give its z-score value. Item: `COCCOC(=O)N1C(=O)[C@@]2(c3cc(C#CC4=CCCCC4)ccc31)[C@H](C(=O)NC[C@H](O)c1ccccc1)[C@H]1C(=O)O[C@H](c3ccccc3)[C@H](c3ccccc3)N1[C@@H]2c1ccc(OCCO)cc1` -1.92

Give its z-score value. Item: `C=C(CCCC)/C(=C/C[C@H](OC(=O)c1ccncc1)c1cccc(OCCO)c1)c1cc(C(=O)OC)ccc1OC` 4.13

Give its z-score value. Item: `COc1cc(CO)cc(I)c1O[C@H]1C=C(C(=O)NCCO)C[C@@H](N(CC2CCCCC2)C(=O)c2cc3ccccc3oc2=O)[C@@H]1O` 0.919

Give its z-score value. Item: CN1CCC(CCCO)=CC1C1CC1 (stereo not given) 1.32

Give its z-score value. Item: `CC(C)=C1C(=O)C(c2ccccc2)=C2CN3C(=O)N(CCc4ccccc4)C(=O)[C@]3(Cc3ccccc3)[C@H]21` -0.366

Give its z-score value. Item: `CCOC(=O)[C@H]1C/C=C/C[C@H](C(=O)OCC)C(=O)O[C@H]2[C@@H](OC)O[C@H](CO)[C@@H](OC(=O)Nc3ccc(Br)cc3)[C@@H]2OC1=O` -3.44

Give its z-score value. Item: `C#C[C@H](O[Si](C#Cc1ccccc1)(C(C)C)C(C)C)c1ccccc1` -2.74

Give its z-score value. Item: `CO[C@H]1COC(=O)CC=C[C@H](C)[C@@H](OC)COC(=O)[C@H](Cc2ccccc2)NC(=O)CC=C[C@@H]1C` 0.566

Give its z-score value. Item: `O=C(CS)NCCCCCCNC(=O)[C@@H]1C[C@@H]2C(=O)N[C@@H](Cc3ccccc3)C(=O)N2[C@@H]1c1ccc(O)cc1` -1.67

Give its z-score value. Item: Cc1cc(C)c(C(O)C2C=CC3C(=O)N(C)C(=O)C3N2N2CCCCC2)c(C)c1 (stereo not given) -1.74

Give its z-score value. Item: `COc1ccc([Si](C)(C)[C@@H]2[C@@H](CCO)O[C@]3(C(=O)N(Cc4ccccc4)c4ccccc43)[C@H]2C)cc1` 2.34

Give its z-score value. Item: `CCc1cccc(NC(=O)O[C@H]2[C@H](OC(=O)Nc3ccccc3)[C@@H](OC(=O)Nc3ccccc3)[C@@H](OC)O[C@@H]2CO)c1` -0.501

Give its z-score value. Item: `CCN1C(C)=C(C(=O)OC)[C@@H](c2ccccc2)N2C(=O)[C@@]3(C(=O)OC)O[C@@]12[C@@H]1C(=O)N(c2ccccc2)C(=O)[C@@H]13` 0.564

Give its z-score value. Item: `NC(=O)NCC#Cc1ccc2c(c1)[C@]1(C(=O)N2)[C@H](C(N)=O)[C@H]2C(=O)O[C@H](c3ccccc3)[C@H](c3ccccc3)N2[C@@H]1c1ccccc1OCCO` -1.01

Give its z-score value. Item: `O=C1O[C@H](c2ccccc2)[C@H](c2ccccc2)N2[C@H]1[C@@H](C(=O)Nc1nc3ccccc3s1)[C@]1(C(=O)Nc3ccc(C#CC4=CCCCC4)cc31)[C@H]2c1ccccc1OCCO` -2.86

Give its z-score value. Item: COC(=O)C1=CC(c2ccc(CO)cc2)=CC(C2CC2)N(Cc2sc3ccccc3c2Cl)C=C1C(=O)OC (stereo not given) 1.72

Attribution: PubChem BioAssay
